# Tested on: Hs-578T
# ASSAY: Cytotoxicity against human Hs578T cells assessed as decrease in cell viability after 120 hrs by MTS assay
# Type: functional, cell-based
The compounds listed here are annotated with their IC50.
Note: unit µM is implicit; provide only the numeric part.

O=c1c2ccccc2nc(/C=C/c2cccnc2)n1Cc1ccccc1 : 9.6

Field IC50 (entry O=c1c2ccccc2nc(/C=C/c2cccnc2)n1Cc1ccc(Cl)cc1 ) reads 4.2
